Below: a set of entries, each annotated with reported kon.
- testedSystem: anti-TNFα antibody-Fab (IgG-Fab derived from anti-TNFα monoclonal antibody, adalimumab) (Homo sapiens, UniProt P01834+P01857)
- Construct: cleaving a humanized monoclonal IgG formulation as a starting material into a Fab fragment and an Fc fragment by papain; purchased
- experimentalDetails: Biacore 3000 surface plasmon resonance, affinity of SpG-β1 mutants for immobilized IgG-Fab
- Type: binding
- conditionDescription: Table 3, Example 4; GST-cleaved type (Pep-), constructs Pep.1d, Pep.1dC, Pep.2dC
observable: kon (s/M)

substance | observable | quantitativeResult
Pep.2dC K13T/E19I/V21D/T25M/F30L/Y33F/N35F/D47A (TTYKLILNGKTLTGETTTIADDAAMAEKVLKQFAFDNGVDGEWTYDAATKTFTVTE) | kon | 55700
Pep.1dC K13T/E19I/V21D/T25M/F30L/Y33F/N35F/D47A (TTYKLILNGKTLTGETTTIADDAAMAEKVLKQFAFDNGVDGEWTYDAATKTFTVTE) | kon | 74700
Pep.1d K13T/E19I/V21D/T25M/F30L/Y33F/N35F/D47A (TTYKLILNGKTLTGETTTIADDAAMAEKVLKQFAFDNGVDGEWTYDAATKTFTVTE) | kon | 109000

###

- testedSystem: anti-TNFα antibody-Fab (IgG-Fab derived from anti-TNFα monoclonal antibody, adalimumab) (Homo sapiens, UniProt P01834+P01857)
- Construct: cleaving a humanized monoclonal IgG formulation as a starting material into a Fab fragment and an Fc fragment by papain; purchased
- experimentalDetails: Biacore 3000 surface plasmon resonance, affinity of SpG-β1 mutants for immobilized IgG-Fab
- Type: binding
- conditionDescription: Table 2, Example 3; fold of wild-type KA; GST-fused one-domain peptide
Where no end group is shown, it is not given here.
Could you please mark fulfilled for values of KA Vs. Wild below 5 and not fulfilled for values at or above it?

substance | class
K13T/E19I/A23T/F30L/Y33F/D47N/K50R: GST-fused one-domain SpG-β1 mutant, amino acid SEQ ID NO: 45 (TTYKLILNGKTLTGETTTIAVDTATAEKVLKQFANDNGVDGEWTYDNATRTFTVTE; also: GST-fused) | not fulfilled
K13T/E19I/D22E/A24T/F30L/Y33F/D47G: GST-fused one-domain SpG-β1 mutant, amino acid SEQ ID NO: 79 (TTYKLILNGKTLTGETTTIAVEATTAEKVLKQFANDNGVDGEWTYDGATKTFTVTE; also: GST-fused) | fulfilled
K13T/E19I/K28R/F30L/Y33F: GST-fused one-domain SpG-β1 mutant, amino acid SEQ ID NO: 27 (TTYKLILNGKTLTGETTTIAVDAATAERVLKQFANDNGVDGEWTYDDATKTFTVTE; also: GST-fused) | not fulfilled
K13T/E19I/F30L/Y33F: GST-fused one-domain SpG-β1 mutant, amino acid SEQ ID NO: 47 (TTYKLILNGKTLTGETTTIAVDAATAEKVLKQFANDNGVDGEWTYDDATKTFTVTE; also: GST-fused) | fulfilled
K13T/E19I/K28N/E42K: GST-fused one-domain SpG-β1 mutant, amino acid SEQ ID NO: 39 (TTYKLILNGKTLTGETTTIAVDAATAENVFKQYANDNGVDGKWTYDDATKTFTVTE; also: GST-fused) | fulfilled
K13T/T18A/E19V/F30L/Y33F: GST-fused one-domain SpG-β1 mutant, amino acid SEQ ID NO: 67 (TTYKLILNGKTLTGETTAVAVDAATAEKVLKQFANDNGVDGEWTYDDATKTFTVTE; also: GST-fused) | not fulfilled
K10R/K13T/E15Q/K28R/F30L/D36G/E42V: GST-fused one-domain SpG-β1 mutant, amino acid SEQ ID NO: 69 (TTYKLILNGRTLTGQTTTEAVDAATAERVLKQYANGNGVDGVWTYDDATKTFTVTE; also: GST-fused, end not given here) | not fulfilled
K13T/V21I/A23T/F30L/E42L: GST-fused one-domain SpG-β1 mutant, amino acid SEQ ID NO: 25 (TTYKLILNGKTLTGETTTEAIDTATAEKVLKQYANDNGVDGLWTYDDATKTFTVTE; also: GST-fused) | fulfilled

###

Below: a set of entries, each annotated with reported KA.
- testedSystem: anti-TNFα antibody-Fab (IgG-Fab derived from anti-TNFα monoclonal antibody, adalimumab) (Homo sapiens, UniProt P01834+P01857)
- Construct: cleaving a humanized monoclonal IgG formulation as a starting material into a Fab fragment and an Fc fragment by papain; purchased
- experimentalDetails: Biacore 3000 surface plasmon resonance, affinity of SpG-β1 mutants for immobilized IgG-Fab
- Format: binding
- conditionDescription: Table 2, Example 3; GST-fused one-domain peptide
Where no end group is shown, it is not given here.
observable: KA

substance | result
K13T/E15Q/E19V/F30L/V39L: GST-fused one-domain SpG-β1 mutant, amino acid SEQ ID NO: 61 (TTYKLILNGKTLTGQTTTVAVDAATAEKVLKQYANDNGLDGEWTYDDATKTFTVTE; also: GST-fused) | 1.42e+06 M⁻¹
K13T/E15Q/E19I/E27D/V39I/D47H: GST-fused one-domain SpG-β1 mutant, amino acid SEQ ID NO: 77 (TTYKLILNGKTLTGQTTTIAVDAATADKVFKQYANDNGIDGEWTYDHATKTFTVTE; also: GST-fused) | 1.85e+06 M⁻¹

###

- testedSystem: anti-TNFα antibody-Fab (IgG-Fab derived from anti-TNFα monoclonal antibody, adalimumab) (Homo sapiens, UniProt P01834+P01857)
- Construct: cleaving a humanized monoclonal IgG formulation as a starting material into a Fab fragment and an Fc fragment by papain; purchased
- experimentalDetails: Biacore 3000 surface plasmon resonance, affinity of SpG-β1 mutants for immobilized IgG-Fab
- Type: binding
- conditionDescription: Table 2, Example 3; GST-fused one-domain peptide; 25° C., pH 7.4
Where no end group is shown, it is not given here.

substance | koff
K13T/E19I/V21N/K28I/F30L: GST-fused one-domain SpG-β1 mutant, amino acid SEQ ID NO: 37 (TTYKLILNGKTLTGETTTIANDAATAEIVLKQYANDNGVDGEWTYDDATKTFTVTE; also: GST-fused) | 0.0071 s⁻¹
K13T/E19I/F30L/Y33F/V39I/D47H: GST-fused one-domain SpG-β1 mutant, amino acid SEQ ID NO: 23 (TTYKLILNGKTLTGETTTIAVDAATAEKVLKQFANDNGIDGEWTYDHATKTFTVTE; also: GST-fused) | 0.0039 s⁻¹
K13T/E15Q/E19I/E27D/V39I/D47H: GST-fused one-domain SpG-β1 mutant, amino acid SEQ ID NO: 77 (TTYKLILNGKTLTGQTTTIAVDAATADKVFKQYANDNGIDGEWTYDHATKTFTVTE; also: GST-fused) | 0.0067 s⁻¹
K13T/E19I/Y33F/N35Y/V39L: GST-fused one-domain SpG-β1 mutant, amino acid SEQ ID NO: 41 (TTYKLILNGKTLTGETTTIAVDAATAEKVFKQFAYDNGLDGEWTYDDATKTFTVTE; also: GST-fused) | 0.0049 s⁻¹
K13T/E15T/E19I/T25M/E27G/F30L/N35Y: GST-fused one-domain SpG-β1 mutant, amino acid SEQ ID NO: 63 (TTYKLILNGKTLTGTTTTIAVDAAMAGKVLKQYAYDNGVDGEWTYDDATKTFTVTE; also: GST-fused) | 0.0063 s⁻¹
K13T/T18A/E19V/F30L/Y33F: GST-fused one-domain SpG-β1 mutant, amino acid SEQ ID NO: 67 (TTYKLILNGKTLTGETTAVAVDAATAEKVLKQFANDNGVDGEWTYDDATKTFTVTE; also: GST-fused) | 0.0033 s⁻¹
K13T/E19I/K28I/F30L/Y33F/E42Q/D47Y: GST-fused one-domain SpG-β1 mutant, amino acid SEQ ID NO: 59 (TTYKLILNGKTLTGETTTIAVDAATAEIVLKQFANDNGVDGQWTYDYATKTFTVTE; also: GST-fused) | 0.0063 s⁻¹
K13T/E19I/K28N/E42K: GST-fused one-domain SpG-β1 mutant, amino acid SEQ ID NO: 39 (TTYKLILNGKTLTGETTTIAVDAATAENVFKQYANDNGVDGKWTYDDATKTFTVTE; also: GST-fused) | 0.0124 s⁻¹

###

- testedSystem: anti-TNFα antibody-Fab (IgG-Fab derived from anti-TNFα monoclonal antibody, adalimumab) (Homo sapiens, UniProt P01834+P01857)
- Construct: cleaving a humanized monoclonal IgG formulation as a starting material into a Fab fragment and an Fc fragment by papain; purchased
- experimentalDetails: Biacore 3000 surface plasmon resonance, affinity of SpG-β1 mutants for immobilized IgG-Fab
- Type: binding
- conditionDescription: Table 3, Example 4; GST-cleaved type (Pep-), constructs Pep.1d, Pep.1dC, Pep.2dC

substance | koff (s⁻¹)
Pep.1d K13T/E19I/V21D/T25M/F30L/Y33F/N35F/D47A (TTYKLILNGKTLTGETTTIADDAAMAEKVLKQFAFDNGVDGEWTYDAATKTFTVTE) | 0.0257
Pep.1d K10R/K13T/T18A/E19I/V21D/T25M/F30L/Y33F/N35F/D47A: SpG-β1 mutant, SEQ ID NO: 87, GST-cleaved one domain type (TTYKLILNGRTLTGETTAIADDAAMAEKVLKQFAFDNGVDGEWTYDAATKTFTVTE; SpG mutant) | 0.0117
Pep.1dC K13T/T18A/E19I/V21A/K28I/F30L/Y33F/V39I: SpG-β1 mutant, SEQ ID NO: 85, GST-cleaved one domain type with Cys at the C-terminus (TTYKLILNGKTLTGETTAIAADAATAEIVLKQFANDNGIDGEWTYDDATKTFTVTE; C-terminal Cys; SpG mutant) | 0.0097
Pep.1d K13T/T18A/E19I/V21A/K28I/F30L/Y33F/V39I: SpG-β1 mutant, SEQ ID NO: 85, GST-cleaved one domain type (TTYKLILNGKTLTGETTAIAADAATAEIVLKQFANDNGIDGEWTYDDATKTFTVTE; SpG mutant) | 0.0207
Pep.2dC K13T/E19I/V21D/T25M/F30L/Y33F/N35F/D47A (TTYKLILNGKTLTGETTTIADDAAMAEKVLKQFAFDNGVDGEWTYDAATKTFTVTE) | 0.0058
Pep.2dC K13T/T18A/E19I/V21A/K28I/F30L/Y33F/V39I (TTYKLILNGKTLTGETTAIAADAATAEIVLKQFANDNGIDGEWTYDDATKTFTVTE) | 0.0062
Pep.1dC K13T/E19I/V21D/T25M/F30L/Y33F/N35F/D47A (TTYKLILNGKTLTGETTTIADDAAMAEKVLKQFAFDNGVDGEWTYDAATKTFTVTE) | 0.0137
Pep.1dC K10R/K13T/T18A/E19I/V21D/T25M/F30L/Y33F/N35F/D47A (TTYKLILNGRTLTGETTAIADDAAMAEKVLKQFAFDNGVDGEWTYDAATKTFTVTE) | 0.0062
